Catalogue of PAMPA Permeability readings, one per entry.
test: PAMPA permeability; assay type: in vitro ADME

[
  {
    "Molecule": "CC1CC1NC(=O)c1ccc(-n2c(=O)ccc3cnc4ccc(-c5ccc(N)nc5)cc4c32)cc1 (stereo not shown)",
    "PAMPA Permeability": "141 ×10⁻⁶ cm/s"
  },
  {
    "Molecule": "O=C(O)c1ccc(-n2c(=O)ccc3c(O)nc4ccc(-c5ccc(Cl)cc5)cc4c32)cc1",
    "PAMPA Permeability": "3.3 ×10⁻⁶ cm/s"
  },
  {
    "Molecule": "Cc1cc(C(=O)NCCN2CCCCC2)ccc1-n1c(=O)ccc2cnc3ccc(-c4ccc(Cl)cc4)cc3c21",
    "PAMPA Permeability": "773 ×10⁻⁶ cm/s"
  },
  {
    "Molecule": "CCNC(=O)c1ccc(-n2c(=O)ccc3cnc4ccc(-c5ccc(Cl)cc5)cc4c32)cc1",
    "PAMPA Permeability": "1.1 ×10⁻⁶ cm/s"
  },
  {
    "Molecule": "CCc1ccc(-c2ccc3ncc4ccc(=O)n(-c5ccc(C(=O)N6CCOCC6)cc5)c4c3c2)cc1",
    "PAMPA Permeability": "148 ×10⁻⁶ cm/s"
  },
  {
    "Molecule": "O=C(NC1CC1)c1ccc(-n2c(=O)ccc3cnc4ccc(-c5ccc(F)cc5)cc4c32)cc1",
    "PAMPA Permeability": "54.2 ×10⁻⁶ cm/s"
  },
  {
    "Molecule": "Cc1cccc(-c2ccc3ncc4ccc(=O)n(-c5ccc(C(=O)N6CCOCC6)cc5)c4c3c2)c1",
    "PAMPA Permeability": "243 ×10⁻⁶ cm/s"
  }
]

Where these numbers come from: patent US11753408B2
